- experimentalTarget: PI3K β (p110β/p85α) (Homo sapiens, UniProt P42338)
- Construct: purchased Upstate / Millipore Corporation
- Sequence (P42338 whole entry): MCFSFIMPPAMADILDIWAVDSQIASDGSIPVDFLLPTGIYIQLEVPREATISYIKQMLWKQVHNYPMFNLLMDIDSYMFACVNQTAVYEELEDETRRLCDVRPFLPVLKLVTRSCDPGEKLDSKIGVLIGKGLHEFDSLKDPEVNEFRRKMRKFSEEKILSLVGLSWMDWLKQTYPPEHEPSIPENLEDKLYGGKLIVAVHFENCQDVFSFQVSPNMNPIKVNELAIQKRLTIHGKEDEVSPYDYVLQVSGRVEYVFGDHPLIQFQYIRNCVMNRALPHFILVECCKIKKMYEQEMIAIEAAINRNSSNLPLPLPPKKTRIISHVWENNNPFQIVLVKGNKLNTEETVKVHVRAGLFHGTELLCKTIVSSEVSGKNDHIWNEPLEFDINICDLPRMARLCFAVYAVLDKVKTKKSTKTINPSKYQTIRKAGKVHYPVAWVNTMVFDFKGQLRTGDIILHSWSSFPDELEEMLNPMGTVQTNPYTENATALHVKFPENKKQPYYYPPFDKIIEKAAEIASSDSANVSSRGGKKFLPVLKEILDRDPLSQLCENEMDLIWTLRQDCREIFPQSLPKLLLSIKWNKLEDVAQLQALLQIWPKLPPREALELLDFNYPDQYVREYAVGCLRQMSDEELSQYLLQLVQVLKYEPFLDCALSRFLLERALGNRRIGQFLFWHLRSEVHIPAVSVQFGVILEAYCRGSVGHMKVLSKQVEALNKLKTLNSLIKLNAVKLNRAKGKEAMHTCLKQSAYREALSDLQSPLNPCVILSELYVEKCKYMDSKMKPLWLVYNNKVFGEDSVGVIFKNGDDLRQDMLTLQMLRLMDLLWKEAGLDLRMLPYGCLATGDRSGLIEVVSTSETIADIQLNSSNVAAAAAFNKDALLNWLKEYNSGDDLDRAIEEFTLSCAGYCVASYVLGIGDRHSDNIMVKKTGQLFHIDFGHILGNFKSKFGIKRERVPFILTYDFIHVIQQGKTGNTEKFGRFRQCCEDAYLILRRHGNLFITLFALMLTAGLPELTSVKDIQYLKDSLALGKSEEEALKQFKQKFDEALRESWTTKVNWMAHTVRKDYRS
- Sequence (P27986 whole entry partner): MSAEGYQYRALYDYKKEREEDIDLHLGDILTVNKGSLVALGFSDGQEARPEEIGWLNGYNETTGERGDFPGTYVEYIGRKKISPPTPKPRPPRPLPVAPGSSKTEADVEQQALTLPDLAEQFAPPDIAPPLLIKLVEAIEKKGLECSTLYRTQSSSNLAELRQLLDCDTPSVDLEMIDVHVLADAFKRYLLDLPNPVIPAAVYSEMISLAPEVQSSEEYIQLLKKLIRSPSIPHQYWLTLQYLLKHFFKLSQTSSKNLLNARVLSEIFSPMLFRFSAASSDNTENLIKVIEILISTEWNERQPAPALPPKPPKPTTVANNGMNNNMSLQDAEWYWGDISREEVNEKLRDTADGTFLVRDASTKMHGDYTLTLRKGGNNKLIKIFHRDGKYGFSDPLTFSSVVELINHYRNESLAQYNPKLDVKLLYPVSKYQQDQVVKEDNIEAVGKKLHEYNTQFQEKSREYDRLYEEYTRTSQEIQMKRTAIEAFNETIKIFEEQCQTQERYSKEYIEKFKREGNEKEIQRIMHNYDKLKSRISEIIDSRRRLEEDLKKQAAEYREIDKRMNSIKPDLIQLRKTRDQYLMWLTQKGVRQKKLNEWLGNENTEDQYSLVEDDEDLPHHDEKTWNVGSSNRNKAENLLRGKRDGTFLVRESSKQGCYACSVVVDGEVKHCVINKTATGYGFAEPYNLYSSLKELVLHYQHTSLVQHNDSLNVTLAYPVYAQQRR
- procedureSummary: PI 3-Kinase (human) HTRF assay, PI3K β
- Assay type: biochemical
- appliedConditions: read-out: PI3K β IC50
pIC50: −log10 of the molar value.
measurementType: pIC50

Example cases with answers are listed next.
{"molecule": "CN(C)[C@@H]1CCN(c2cnc3ccc(-c4ccc5oc(N)nc5c4)cc3n2)C1 [Compound 378]", "pIC50": "> 7.00"}
{"molecule": "Nc1nc2ccc(-c3ccc4ncc(N5CCOCC5)nc4c3)cc2o1 [Compound 117]", "pIC50": "> 6.00"}
{"molecule": "C[C@@H]1CN(c2cnc3ccc(-c4ccc5oc(N)nc5c4)cc3n2)C[C@H](C)O1 [Compound 132]", "pIC50": "< 5.00"}
{"molecule": "CN1CCC(Nc2ncnc3ccc(-c4ccc5oc(N)nc5c4)nc23)CC1 [Compound 212]", "pIC50": "> 6.00"}
{"molecule": "NC(=O)[C@@H]1CCCN1C(=O)c1cnc2ccc(-c3ccc4oc(N)nc4c3)cn12 [Compound 259]", "pIC50": "< 5.00"}
{"molecule": "Nc1nc2cc(-c3ccc4ncnc(OC5CCOCC5)c4c3)ccc2o1 [Compound 47]", "pIC50": "> 6.00"}
{"molecule": "Nc1nc2cc(-c3ccc4ncc(C(=O)NC5CC5)n4c3)ccc2o1 [Compound 187]", "pIC50": "> 5.00"}
{"molecule": "Nc1ncc(-c2ccc3oc(N)nc3c2)cn1 [Compound 233]", "pIC50": "< 5.00"}

Now for a further molecule.
// returns reported pIC50 for input CN(C)C1CCN(C(=O)c2cnc3ccc(-c4ccc5oc(N)nc5c4)cn23)CC1 [Compound 304] < 5.00
